test system: MV-4-11; assay: Proliferation assay (resazurin, leukemia cell lines), MV-4-11; format: cell-based; settings: Homo sapiens, MV4-11, read-out: 72 h Growth inhibition GI50, MV-4-11 cells
parameter: GI50 (nM)
Answer in nM, number only, no unit symbol.

// known answers, use as guide
CN1CCN(c2ccc(Nc3ncc(F)c(-c4cnc5ccc(-c6ccccc6)cn45)n3)cn2)CC1 : 233
CN(C)c1ccc(Nc2nccc(-c3cnc4ccc(C5=CCN(C(=O)OC(C)(C)C)CC5)cn34)n2)cn1 : 362
CC(=O)N1CCN(c2ccc(Nc3nccc(-c4cnc5ccc(Br)cn45)n3)cn2)CC1 : 21
CS(=O)(=O)N1CCN(c2ccc(Nc3nccc(-c4cnc5ccc(-c6ccco6)cn45)n3)cn2)CC1 : 17
CN(C)C1CCN(Cc2ccc(Nc3nccc(-c4cnc5ccc(Br)cn45)n3)cn2)CC1 : 98

Asked: Tell us which GI50 value is on record for CCCNc1ccc(Nc2nccc(-c3cnc4ccc(Br)cn34)n2)cn1
Given back: 20

Asked: Tell us which GI50 value is on record for Cc1cnc(Nc2ccc(N3CCOCC3)nc2)nc1-c1cnc2ccccn12
Given back: 49

Asked: Tell us which GI50 value is on record for Cc1ccc2ncc(-c3ccnc(Nc4ccc(N5CCN(C)CC5)nc4)n3)n2c1
Given back: 4

Asked: Tell us which GI50 value is on record for CN1CCN(Cc2ccc(Nc3nccc(-c4cnc5ccc(-c6ccccc6)cn45)n3)cn2)CC1
Given back: 105

Asked: Tell us which GI50 value is on record for CCS(=O)(=O)N1CCN(c2ccc(Nc3nccc(-c4cnc5ccc(-c6ccc(F)nc6)cn45)n3)cn2)CC1
Given back: 20

Asked: Tell us which GI50 value is on record for CC(C)N1CCN(c2ccc(Nc3nccc(-c4cnc5ccc(-c6ccsc6)cn45)n3)cn2)CC1
Given back: 50

Asked: Tell us which GI50 value is on record for COC(=O)c1ccc(Nc2nccc(-c3cnc4ccc(Br)cn34)n2)cn1
Given back: 262

Asked: Tell us which GI50 value is on record for CN1CCN(c2ccc(Nc3nccc(-c4cnc5ccc(-c6cnn(C(F)F)c6)cn45)n3)cn2)CC1
Given back: 8

Asked: Tell us which GI50 value is on record for CN(C)c1ccc(Nc2nccc(-c3cnc4ccc(-c5ccccc5)cn34)n2)cn1
Given back: 17

Asked: Tell us which GI50 value is on record for CC(C)N1CCN(c2ccc(Nc3nccc(-c4cnc5ccc(-c6ccncc6)cn45)n3)cn2)CC1
Given back: 47

Asked: Tell us which GI50 value is on record for CC(=O)N1CCN(c2ccc(Nc3ncc(F)c(-c4cnc5ccccn45)n3)cn2)CC1
Given back: 6

###

biological target: CDK6/CyclinD3 (Homo sapiens); assay: ADP Glo kinase assay, CDK6/CyclinD3; format: biochemical; settings: compound at 1 μM, read-out: Residual enzymatic activity (%) at 1 μM, CDK6 D3
Sequence (Q00534 whole entry, species assumed): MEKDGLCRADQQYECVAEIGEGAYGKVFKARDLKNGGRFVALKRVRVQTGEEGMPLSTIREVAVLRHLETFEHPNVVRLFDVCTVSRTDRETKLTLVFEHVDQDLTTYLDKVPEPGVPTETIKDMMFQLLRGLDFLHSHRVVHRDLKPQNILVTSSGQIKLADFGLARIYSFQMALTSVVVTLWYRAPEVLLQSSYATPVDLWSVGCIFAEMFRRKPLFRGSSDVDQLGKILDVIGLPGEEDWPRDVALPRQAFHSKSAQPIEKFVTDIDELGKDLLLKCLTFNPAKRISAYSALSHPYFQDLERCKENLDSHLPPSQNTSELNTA
Sequence (P30281 whole entry partner, species assumed): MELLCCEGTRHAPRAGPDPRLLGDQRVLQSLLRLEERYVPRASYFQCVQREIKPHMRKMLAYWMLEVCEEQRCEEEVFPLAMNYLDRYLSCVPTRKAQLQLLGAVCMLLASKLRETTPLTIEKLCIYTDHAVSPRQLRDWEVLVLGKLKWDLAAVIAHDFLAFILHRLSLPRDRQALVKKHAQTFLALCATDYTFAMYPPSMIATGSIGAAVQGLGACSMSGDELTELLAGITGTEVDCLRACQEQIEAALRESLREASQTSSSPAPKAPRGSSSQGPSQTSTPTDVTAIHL
Threshold-based label: remaining activity at 1 µM under 60% gives fulfilled, remaining activity at 1 µM not under 60% gives not fulfilled.

Examples from the recorded data:
CC(C)N1CCN(c2ccc(Nc3nccc(-c4cnc5ccc(-c6ccc(F)nc6)cn45)n3)cn2)CC1 [Compound 55] : fulfilled
CN1CCN(c2ccc(Nc3nccc(-c4cnc5ccc(-c6cnn(C)c6)cn45)n3)nc2)CC1 [Comparator compound B, reference compound] : not fulfilled
CN(C)C1CCN(Cc2ccc(Nc3nccc(-c4cnc5ccc(Br)cn45)n3)cn2)CC1 [Compound 81] : fulfilled
CCCNc1ccc(Nc2nccc(-c3cnc4ccc(Br)cn34)n2)cn1 [Compound 74] : not fulfilled
CN1CCN(Cc2ccc(Nc3nccc(-c4cnc5ccc(Br)cn45)n3)cn2)CC1 [Compound 77] : fulfilled

Then there is this compound:
Asked: Is the reported remaining activity at 1 µM for CCS(=O)(=O)N1CCN(c2ccc(Nc3nccc(-c4cnc5ccc(Br)cn45)n3)cn2)CC1 [Compound 59] strictly below 60%?
Given back: fulfilled
